Where do the numbers come from? From patent US20250002465A1.

Test system: MDA-MB-468
Experiment: Cytotoxicity, MTT assay
Conditions: read-out: IC50 (cytotoxicity), MDA-MB-468 cells, 72 hours
pIC50: −log10 of the molar value.

>  <COMPOUND>
OCCCn1cc(CN(Cc2cn(CCCO)nn2)Cc2cn(CCCO)nn2)nn1.[Cu] [THPTA, reference compound]

>  <pIC50>
4.65

$$$$
